Data origin: patent US20230295106A1

# MEASUREMENT_TARGET: 5-HT2C edited (accession number AAF35842.1) (Homo sapiens, UniProt P28335, I156V/I160V/N158S)
# MEASUREMENT_NOTES: cell-based
# SETTINGS: 5-HT2C IPOne Agonism Activity
# Sequence (P28335 whole entry I156V/N158S/I160V, looked up): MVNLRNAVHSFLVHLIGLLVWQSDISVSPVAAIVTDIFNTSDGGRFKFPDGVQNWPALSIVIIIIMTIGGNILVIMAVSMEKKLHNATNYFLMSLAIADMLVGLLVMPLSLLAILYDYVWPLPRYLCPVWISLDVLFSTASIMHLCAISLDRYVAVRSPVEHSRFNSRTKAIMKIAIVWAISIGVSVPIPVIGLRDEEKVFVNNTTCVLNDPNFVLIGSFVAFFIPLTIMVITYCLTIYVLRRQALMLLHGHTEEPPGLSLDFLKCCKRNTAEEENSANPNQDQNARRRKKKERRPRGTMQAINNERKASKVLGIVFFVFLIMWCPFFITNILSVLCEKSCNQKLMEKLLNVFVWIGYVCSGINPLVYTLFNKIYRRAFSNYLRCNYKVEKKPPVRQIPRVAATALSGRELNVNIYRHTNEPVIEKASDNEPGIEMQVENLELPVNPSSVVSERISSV
pEC50: −log10 of the molar value.
Below: a set of entries, each annotated with reported pEC50.

Known results for molecules:
MOLECULE | pEC50
CCN(CC)C(=O)[C@@H]1C=C(c2cc(OC)cc(OC)c2)CN(C)C1 (single isomer, unassigned) [Compound 5] | 6.00 to 7.00
CCN(CC)C(=O)[C@@H]1C=C(c2cc(OC)cc(OC)c2)CN(C)C1 (single isomer, unassigned) [Compound 6] | 5.00 to 6.00
CCN(CC)C(=O)[C@@H]1C=C(c2ccccc2OC)CN(C)C1 (single isomer, unassigned) [Compound 8] | 5.00 to 6.00
COc1cc2c3c(ccn3CC(N)C2)c1 (stereo not drawn) | 5.00 to 6.00
NC1Cc2cc(F)cc3ccn(c23)C1 (stereo not drawn) | 6.00 to 7.00

Given item CN(C)C1Cc2cccc3ccn(c23)C1 (single isomer, unassigned) , the value recorded as its pEC50 is 6.00 to 7.00

====

Below: a set of entries, each annotated with reported IC50.
# MEASUREMENT_TARGET: 5-HT2C edited (accession number AAF35842.1) (Homo sapiens, UniProt P28335, I156V/I160V/N158S)
# MEASUREMENT_NOTES: biochemical
# SETTINGS: 5-HT2C Radioligand Binding Activity
# Sequence (P28335 33-458 I156V/N158S/I160V limits assumed): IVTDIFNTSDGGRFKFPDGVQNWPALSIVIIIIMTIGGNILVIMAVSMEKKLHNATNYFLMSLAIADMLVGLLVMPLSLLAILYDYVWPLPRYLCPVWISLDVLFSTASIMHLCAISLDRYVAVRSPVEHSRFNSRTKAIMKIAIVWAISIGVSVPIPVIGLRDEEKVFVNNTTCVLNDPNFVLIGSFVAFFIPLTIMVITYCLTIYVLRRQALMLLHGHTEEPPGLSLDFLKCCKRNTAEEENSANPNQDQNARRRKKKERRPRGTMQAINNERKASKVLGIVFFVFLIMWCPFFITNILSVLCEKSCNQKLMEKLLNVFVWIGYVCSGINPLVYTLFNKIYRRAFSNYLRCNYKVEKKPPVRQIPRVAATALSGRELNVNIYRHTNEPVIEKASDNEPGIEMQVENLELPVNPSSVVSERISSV

Given item CCN(CC)C(=O)[C@@H]1C=C(c2cccc(OC)c2)CN(C)C1 (single isomer, unassigned) [Compound 10] , the value recorded as its IC50 is 101 to 1000 nM

Given item NC1Cc2cc(F)cc3ccn(c23)C1 (centres unmarked) [Compound 17] , the value recorded as its IC50 is 101 to 1000 nM

Given item NC1Cc2cc(Cl)cc3ccn(c23)C1 (centres unmarked) [Compound 21] , the value recorded as its IC50 is 101 to 1000 nM

Given item CCN(CC)C(=O)[C@@H]1C=C(c2cccc(OC)c2)CN(C)C1 (single isomer, unassigned) [Compound 9] , the value recorded as its IC50 is 10 to 100 nM

Given item COc1cc2c3c(ccn3CC(N)C2)c1 (centres unmarked) [Compound 25] , the value recorded as its IC50 is 1000 to 10000 nM

====

# MEASUREMENT_TARGET: 5-HT2C edited (accession number AAF35842.1) (Homo sapiens, UniProt P28335, I156V/I160V/N158S)
# MEASUREMENT_NOTES: biochemical
# SETTINGS: 5-HT2C Radioligand Binding Activity
Below: a set of entries, each annotated with reported IC50.

Known results for compounds:
COMPOUND | RESULT
CN(C)C1Cc2cccc3ccn(c23)C1 (single isomer, unassigned) [Compound 14] | 0.01 to 0.1 µM
CCN(CC)C(=O)[C@@H]1C=C(c2ccccc2OC)CN(C)C1 (single isomer, unassigned) [Compound 8] | 1 to 10 µM
NC1Cc2c(F)ccc3ccn(c23)C1 (centres unmarked) | 0.101 to 1 µM
CCN(CC)C(=O)[C@@H]1C=C(c2cc(OC)cc(OC)c2)CN(C)C1 (single isomer, unassigned) [Compound 5] | 0.101 to 1 µM
CCN(CC)C(=O)[C@@H]1C=C(c2cc(OC)cc(OC)c2)CN(C)C1 (single isomer, unassigned) [Compound 6] | 1 to 10 µM
CN(C)C1Cc2cccc3ccn(c23)C1 (single isomer, unassigned) [Compound 15] | 0.101 to 1 µM
NC1Cc2cccc3ccn(c23)C1 (centres unmarked) | 0.101 to 1 µM
NC1Cc2c(Cl)ccc3ccn(c23)C1 (centres unmarked) | 0.101 to 1 µM
CCN(CC)C(=O)[C@@H]1C=C(c2ccccc2OC)CN(C)C1 (single isomer, unassigned) [Compound 7] | 0.101 to 1 µM
CCN(CC)C1Cc2cccc3ccn(c23)C1 (centres unmarked) | 0.101 to 1 µM

Proceeding to the next compound to report its IC50.
Given item NC1Cc2cccc3[nH]cc(c23)C1 (centres unmarked) [Compound 27, 1,3,4,5-tetrahydrobenzo[cd]indol-4-amine] , the value recorded as its IC50 is 0.101 to 1 µM
